Exercise: state measured pIC50 for each of the molecules provided.
assayed.system: Epidermal growth factor receptor (Homo sapiens)
method.description: Inhibition of wild type recombinant human EGFR preincubated for 10 mins followed by FAM-labeled peptide/ATP addition measured after 1 hr by mobility shift assay
pIC50: −log10 of the molar value.

// query Supply pIC50 value. Item: C/C(=N\Nc1ncc(Cl)c(Nc2cccc(NC(=O)/C=C/CN(C)C)c2)n1)c1cccnc1
// result < 4.70

// query For the molecule C=CC(=O)Nc1cccc(Nc2nc(N/N=C/c3ccc(F)cc3F)ncc2Cl)c1 , give its reported pIC50.
// result < 4.70

// query Tell me pIC50 reported for C=CC(=O)Nc1cccc(Nc2nc(N/N=C(\C)c3ccc(F)cc3F)ncc2Cl)c1
// result 4.93

// query Give the reported value of pIC50 for this record: C=CC(=O)Nc1cccc(Nc2nc(N/N=C/c3ccccc3F)ncc2Cl)c1
// result < 4.70

---

The reader will find pIC50 measurements below, all made with Epidermal growth factor receptor (Homo sapiens, UniProt P00533, L858R/T790M).
Sequence (P00533 25-1210 T790M/L858R limits assumed): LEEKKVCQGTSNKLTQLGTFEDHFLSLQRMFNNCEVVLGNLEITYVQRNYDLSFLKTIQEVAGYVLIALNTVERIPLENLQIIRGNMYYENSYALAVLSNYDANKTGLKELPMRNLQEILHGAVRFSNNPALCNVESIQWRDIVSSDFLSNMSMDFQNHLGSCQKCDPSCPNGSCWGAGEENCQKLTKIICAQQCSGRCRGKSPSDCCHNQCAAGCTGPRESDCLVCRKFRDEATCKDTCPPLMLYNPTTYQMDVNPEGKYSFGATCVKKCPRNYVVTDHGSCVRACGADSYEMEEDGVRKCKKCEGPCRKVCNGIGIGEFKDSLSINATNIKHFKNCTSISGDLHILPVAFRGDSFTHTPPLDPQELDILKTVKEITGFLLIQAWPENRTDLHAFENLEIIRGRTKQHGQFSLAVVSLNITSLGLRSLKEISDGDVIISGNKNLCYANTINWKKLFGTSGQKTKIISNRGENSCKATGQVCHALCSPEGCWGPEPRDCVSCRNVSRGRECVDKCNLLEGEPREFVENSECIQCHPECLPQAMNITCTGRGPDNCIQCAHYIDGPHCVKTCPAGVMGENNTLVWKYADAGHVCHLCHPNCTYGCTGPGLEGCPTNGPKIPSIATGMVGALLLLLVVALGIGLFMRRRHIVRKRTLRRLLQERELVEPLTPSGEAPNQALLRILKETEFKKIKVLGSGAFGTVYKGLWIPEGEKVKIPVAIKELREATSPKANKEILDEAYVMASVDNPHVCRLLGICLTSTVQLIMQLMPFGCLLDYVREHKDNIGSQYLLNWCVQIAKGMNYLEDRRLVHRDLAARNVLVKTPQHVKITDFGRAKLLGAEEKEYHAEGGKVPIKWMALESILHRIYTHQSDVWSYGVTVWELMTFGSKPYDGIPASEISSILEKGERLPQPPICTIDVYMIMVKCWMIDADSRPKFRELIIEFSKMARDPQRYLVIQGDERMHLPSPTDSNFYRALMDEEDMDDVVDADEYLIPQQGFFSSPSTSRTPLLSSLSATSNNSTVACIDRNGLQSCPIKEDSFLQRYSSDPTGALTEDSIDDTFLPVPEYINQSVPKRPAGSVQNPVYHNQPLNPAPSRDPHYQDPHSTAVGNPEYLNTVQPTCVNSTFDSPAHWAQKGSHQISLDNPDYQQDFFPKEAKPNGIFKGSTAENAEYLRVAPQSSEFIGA
Keep in mind that pIC50 stands for -log10 of concentration in molar terms.

// query Give recorded pIC50. C=CC(=O)Nc1cccc(Nc2nc(N/N=C/c3ccc(F)cc3)ncc2Cl)c1
// result 6.07

// query # return recorded pIC50 for input CN(C)C/C=C/C(=O)Nc1cccc(Nc2nc(N/N=C/c3ccc(F)cc3F)ncc2Cl)c1
// result 5.60

// query Please look at this compound and report its pIC50: C/C(=N\Nc1ncc(Cl)c(Nc2cccc(NC(=O)/C=C/CN(C)C)c2)n1)c1ccc(F)cc1F
// result 6.14

// query Provide only the value of recorded pIC50 for CN(C)C/C=C/C(=O)Nc1cccc(Nc2nc(N/N=C/c3cn(Cc4ccccc4)c4ccccc34)ncc2Cl)c1
// result 6.06

// query Given the compound C=CC(=O)Nc1cccc(Nc2nc(N/N=C/c3ccc(F)cc3F)ncc2Cl)c1 , write its reported pIC50.
// result 4.94

// query Determine its reported pIC50: C=CC(=O)Nc1cccc(Nc2nc(N/N=C(\C)c3ccc(F)cc3)ncc2Cl)c1
// result 5.77

// query Assign pIC50 to the following record: C/C(=N\Nc1ncc(Cl)c(Nc2cccc(NC(=O)/C=C/CN(C)C)c2)n1)c1cccnc1
// result 5.36

// query Consider the compound C=CC(=O)Nc1cccc(Nc2nc(N/N=C(\C)c3ccc(F)cc3F)ncc2Cl)c1 and give its recorded pIC50.
// result 5.64

// query Dear colleague, please send me the reported pIC50 for C/C(=N\Nc1ncc(Cl)c(Nc2cccc(NC(=O)/C=C/CN(C)C)c2)n1)c1ccc(F)cc1 when you can.
// result 5.63

// query Supply reported pIC50 belonging to this compound: C/C(=N\Nc1ncc(Cl)c(Nc2cccc(NC(=O)/C=C/CN(C)C)c2)n1)c1ccccn1
// result 5.62

// query Assign pIC50 to the following record: C=CC(=O)Nc1cccc(Nc2nc(N/N=C(\C)c3ccc(C)cc3)ncc2Cl)c1
// result 5.25

// query Provide measured pIC50 value, entry: C=CC(=O)Nc1cccc(Nc2nc(N/N=C/c3ccccc3F)ncc2Cl)c1
// result 5.82

---

Tested on: A549
method.description: Antiproliferative activity against human A549 cells harboring wild type EGFR/k-Ras mutation after 72 hrs by MTT assay
Type: functional, cell-based
condition.set: A549, 72 h
recorded.endpoint: pIC50
# reply with the number alone; pIC50 is -log10 of concentration in mol/L

// query Identify the reported pIC50 for the following entry. C=CC(=O)Nc1cccc(Nc2nc(N/N=C/c3ccc(F)cc3F)ncc2Cl)c1
// result 4.95

// query Return reported pIC50. Input compound: C=CC(=O)Nc1cccc(Nc2nc(NNC(=O)c3ccc(F)cc3)ncc2Cl)c1
// result 4.51

// query Give recorded pIC50. C=CC(=O)Nc1cccc(Nc2nc(N/N=C/c3ccccc3F)ncc2Cl)c1
// result 5.22

// query Read off the recorded pIC50 for C=CC(=O)Nc1cccc(Nc2nc(N/N=C(\C)c3ccncc3)ncc2Cl)c1
// result 4.54

// query State its pIC50: C=CC(=O)Nc1cccc(Nc2nc(N/N=C(\C)c3ccc(OC)cc3)ncc2Cl)c1
// result 5.11

// query State its pIC50 for this compound: C/C(=N\Nc1ncc(Cl)c(Nc2cccc(NC(=O)/C=C/CN(C)C)c2)n1)c1ccc(C)cc1
// result 4.97

// query Name the recorded pIC50 of the compound listed here: C=CC(=O)Nc1cccc(Nc2nc(N/N=C/c3ccc(F)cc3)ncc2Cl)c1
// result 4.98

// query Give me measured pIC50, please, for this compound: COc1ccc(/C=N/Nc2ncc(Cl)c(Nc3cccc(NC(=O)/C=C/CN(C)C)c3)n2)cc1
// result 5.20

// query Give pIC50 for the following compound: COc1cccc(/C(C)=N/Nc2ncc(Cl)c(Nc3cccc(NC(=O)/C=C/CN(C)C)c3)n2)c1
// result 4.94

The measured values listed here are drawn from ChEMBL document CHEMBL3739350.
